The measurements presented in this section are drawn from paper PMC7696255.

TARGET OR TEST SYSTEM: S. aureus sortase A (Staphylococcus aureus)
Construct: purchased AnaSpec AS-72229
Sequence (Q2FV99 whole entry): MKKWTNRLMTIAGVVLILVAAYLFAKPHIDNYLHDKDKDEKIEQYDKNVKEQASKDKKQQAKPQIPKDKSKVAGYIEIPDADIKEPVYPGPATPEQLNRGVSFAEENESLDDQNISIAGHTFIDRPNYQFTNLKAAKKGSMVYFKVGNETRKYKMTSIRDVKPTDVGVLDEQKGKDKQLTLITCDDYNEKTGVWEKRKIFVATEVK
TEST DETAILS: SrtA enzyme inhibition FRET assay, DABCYL-LPETG-EDANS substrate
Format: biochemical
MEASUREMENT SETUP: read-out: Sortase A IC50; DABCYL-LPETG-EDANS substrate; 4 h
PROPERTY NAME: IC50

Query: # get_value(readout= IC50, system= S. aureus sortase A (Staphylococcus aureus)) for CC1=CC2c3c(cc4oc5cc(C)cc(O)c5c4c3C)OC3(O)C(=O)c4oc5cc(C)cc(O)c5c4C(C)(C1)C23 (stereo not shown)
Result: > 200 µM
